The entries below are paired with their reported log10 IC50.
- tgt: GABA-A receptor; anion channel
- Type: functional, tissue-based, Bos taurus, Brain
observed_property: log10 IC50 (log10 of the value in nM)

INSERT INTO assay_data (compound, tgt, observed) VALUES
  ('N=c1ccc(-c2ccc(Cl)cc2)nn1Cc1cc(O)ns1', 'GABA-A receptor; anion channel', 1.46),
  ('NCc1cc(=O)[nH]o1', 'GABA-A receptor; anion channel', 2.13),
  ('C[C@]12CC(=O)C3C(CC[C@@H]4C[C@H](O)CC[C@]34C)C1CC(=N)N2 (some centres undefined)', 'GABA-A receptor; anion channel', 0.48),
  ('N=c1c2ccccc2c(-c2ccccc2)nn1Cc1cc(O)ns1', 'GABA-A receptor; anion channel', 1.40),
  ('N=c1ccc(-c2ccc3c(c2)OCO3)nn1Cc1cc(O)no1', 'GABA-A receptor; anion channel', 0.78),
  ('Cc1cc(-c2ccccc2)c(=N)n(Cc2cc(O)ns2)n1', 'GABA-A receptor; anion channel', 3.00),
  ('N=c1ccc(-c2ccc(Cl)cc2)nn1Cc1cc(O)no1', 'GABA-A receptor; anion channel', 1.90),
  ('N=c1ccc(-c2ccc3c(c2)OCO3)nn1Cc1cc(O)ns1', 'GABA-A receptor; anion channel', -0.12),
  ('N=c1c2ccccc2c(-c2ccccc2)nn1Cc1cc(O)no1', 'GABA-A receptor; anion channel', 2.28);

----------
Reported pIC50 values follow for various compounds
- tgt: GABA-A receptor; anion channel
- Type: organism-based, Bos taurus, Brain
pIC50: −log10 of the molar value.
observed_property: pIC50

INSERT INTO results (compound, observed) VALUES
  ('N=c1ccc(-c2ccc(Cl)cc2)nn1Cc1cc(O)ns1', 6.82),
  ('Cc1cc(-c2ccccc2)nn(CCCC(=O)O)c1=N', 5.64),
  ('C[C@]12CC(=O)C3C(CC[C@@H]4C[C@H](O)CC[C@]34C)C1CC(=N)N2 (some centres undefined)', 7.37),
  ('Cc1cc(-c2ccccc2)nn(Cc2cc(O)no2)c1=N', 6.00),
  ('N=c1ccc(-c2ccc(Cl)cc2)nn1Cc1cc(O)no1', 5.92),
  ('N=c1ccc(-c2ccc3c(c2)OCO3)nn1CCCC(=O)O', 7.30),
  ('O=C1OC=C2CCCNCC12 (centres undefined)', 4.25),
  ('NCc1cc(=O)[nH]o1', 8.70),
  ('NCc1cc(O)ns1', 7.72),
  ('N=c1ccc(-c2ccc(Cl)cc2)nn1CCCC(=O)O', 6.55),
  ('N=c1ccc(-c2ccc3c(c2)OCO3)nn1Cc1cc(O)ns1', 7.77),
  ('N=c1ccc(-c2ccsc2)nn1Cc1cc(O)no1', 5.80),
  ('N=c1c2ccccc2c(-c2ccccc2)nn1Cc1cc(O)ns1', 6.80),
  ('N=c1ccc(-c2ccccc2)nn1CCCC(=O)O', 5.92),
  ('N=c1c2ccccc2c(-c2ccccc2)nn1Cc1cc(O)no1', 6.92),
  ('Cc1cc(-c2ccccc2)c(=N)n(CCCC(=O)O)n1', 4.97),
  ('Cc1cc(-c2ccccc2)c(=N)n(Cc2cc(O)ns2)n1', 5.18),
  ('N=c1ccc(-c2ccsc2)nn1CCCC(=O)O', 5.63),
  ('N=c1ccc(-c2ccc3c(c2)OCO3)nn1Cc1cc(O)no1', 7.12);
